Assay: qHTS assay to identify small molecule agonists of the RXR signaling pathway - cell viability counter screen (AID 1159529);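 further: HEK 293T cells carrying an RXR-alpha UAS beta-lactamase reporter; nearly all actives have a fitted effect of over 50% in size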
Settings: RXR-alpha-bla HEK293T viability, CellTiter-Glo, 16 h; series mostly up to 76.8 µM
Source text: National Center for Advancing Translational Sciences [NCATS] NIH Chemical Genomics Center [NCGC] U.S. Environmental Protection Agency [EPA] National Institutes of Environmental Health Sciences [NIEHS] National Toxicology Program [NTP] U.S. Food and Drug Administration [FDA] The Retinoid X receptor (RXR), a nuclear hormone receptor expressed in liver, spleen, placenta, epidermis, central nervous system. […]
Results filed as inconclusive are left out. Activity calls are given as the source filed them. The call rests on the fitted dose curve; in most records, active means well fitted cell-killing curve with a large enough effect in the repeat runs; inconclusive means weak or mixed curves, or effect the other way; inactive means no such curve, though single readings can be large or run the other way.
Outcome (select one): T (active), F (inactive)

// below: answered compounds
Cc1ccc(C(C)OC(=O)C2(C)CCC(C(=O)O)C2(C)C)cc1 (configuration not stated)    F
OCCNCc1ccccc1    F
CCCCO    F
Nc1ncn([C@H]2C[C@H](O)[C@@H](CO)O2)c(=O)n1    F

IN: Test call for this compound, please: O=C(CS)Nc1ccccc1
OUT: F

IN: Test call for this compound, please: O=C(c1ccc(F)cc1)C1CCN(CCn2c(=S)[nH]c3ccccc3c2=O)CC1
OUT: F

IN: Test call for this compound, please: O=C(O)c1nc(Cl)c(Cl)c(Cl)c1Cl
OUT: F

IN: Test call for this compound, please: c1cc(CCCc2ccncc2)ccn1
OUT: F
